Just for reference, the RNAGym collection of RNA variant scans (doi:10.1073/pnas.2313332121) is where these values come from.

polymerase ribozyme fitness (log ratio): recorded values
B1: TPR t1 (parent)
chain: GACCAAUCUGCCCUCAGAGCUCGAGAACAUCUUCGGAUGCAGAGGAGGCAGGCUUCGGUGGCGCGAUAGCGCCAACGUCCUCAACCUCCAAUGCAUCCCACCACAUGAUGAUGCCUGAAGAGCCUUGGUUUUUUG

Variants of: B1
Assay: polymerase ribozyme fitness, log enrichment relative to wild type (log ratio); higher = more active; in vitro selection for triplet polymerase activity
Hey, just send me the number, nothing else.

A selection of reference data follows.
A2G A18C C115A C123U : -1.44
C11U G77U U112C : 1.4
C12U C72G U112C : 1.25

Record C72G A90G G110U G135C , field polymerase ribozyme fitness (log ratio): -2

The reported value for C70U U81A C82G in terms of polymerase ribozyme fitness (log ratio) is -2.96

The recorded polymerase ribozyme fitness (log ratio) for U7A U92A G120A U133A is -0.782
